- System: Rhinovirus HGP
- experimental.details: Antiviral activity: inhibition of viral cytopathogenic effect (C.P.E.) in HeLa cell culture
- Type: cell-based
- setup.conditions: Enterovirus, HeLa, 48 h, concentration inhibiting C.P.E. by 50% versus control culture; HeLa cells, 2 days at 33°C; read-out: IC50
observable: IC50 (µg/mL)
Kindly provide the numeric value in µg/mL only, without the unit symbol.

Study these solved cases before continuing.
INSERT INTO assay_data (compound, observable, unit_text, value_measured) VALUES
  ('COc1cc(O)c(C(=O)NCc2ccc(SC)cc2)c(OC)c1', 'IC50', 'µg/mL', 0.002),
  ('COc1cc(O)c(C(=O)NCc2ccc(OC)c(OC)c2)c(OC)c1', 'IC50', 'µg/mL', 0.3),
  ('COc1cc(O)c(C(=O)CCC2CCC(C)O2)c(OC)c1 (centres unmarked)', 'IC50', 'µg/mL', 0.9),
  ('COc1cc(O)c(C(=O)CCc2ccc(C)o2)c(OC)c1', 'IC50', 'µg/mL', 0.9),
  ('COc1cc(O)c(C(=O)CCc2ccc(Cl)cc2)c(OC)c1', 'IC50', 'µg/mL', 0.1);

### Prompt # input compound: `CCOc1cc(O)c(C(=O)NCc2ccc(OC)cc2)c(OC)c1` ; wanted: its IC50
### Response 0.002
